Item-by-item account of inhibition
molecular target: CMP-N-acetylneuraminate-beta-galactosamide-alpha-2,3-sialyltransferase 1 (Homo sapiens); test: Inhibition of recombinant human ST3Gal I at 100 uM incubated for 1 hrs in the presence of CMP-Neu5Ac as donor and Gal-beta1,3-GalNAc as acceptor by luminescence based CMP-Glo assay relative to control
ENDPOINT_LABEL: inhibition

• O=c1ccn([C@@H]2O[C@H](COCc3cn(C(c4cccc(Oc5ccccc5)c4)P(=O)(O)O)nn3)[C@@H](O)[C@H]2O)c(=O)[nH]1 (stereo in doubt; 13a-(s)) = 28%
• O=c1ccn([C@@H]2O[C@H](COCc3cn(C(c4cccc(Oc5ccccc5)c4)P(=O)(O)O)nn3)[C@@H](O)[C@H]2O)c(=O)[nH]1 (stereo in doubt; 13a-(l)) = 2%
• O=c1ccn([C@@H]2O[C@H](COCc3cn(C(c4cccc(OC(F)(F)C(F)F)c4)P(=O)(O)O)nn3)[C@@H](O)[C@H]2O)c(=O)[nH]1 (single isomer, unassigned) = 49%
• O=c1ccn([C@@H]2O[C@H](Cn3cc(C(O)c4cccc(Oc5ccccc5)c4)nn3)[C@@H](O)[C@H]2O)c(=O)[nH]1 (some centres not stated) = 43%
• O=c1ccn([C@@H]2O[C@H](COCc3cn(C(c4ccc(F)c(Oc5ccccc5)c4)P(=O)(O)O)nn3)[C@@H](O)[C@H]2O)c(=O)[nH]1 (stereo in doubt; 13c-(l)) = 9%
• O=c1ccn([C@@H]2O[C@H](COCc3cn(C(c4ccc(F)c(Oc5ccccc5)c4)P(=O)(O)O)nn3)[C@@H](O)[C@H]2O)c(=O)[nH]1 (stereo in doubt; 13c-(s)) = 43%
• O=c1ccn([C@@H]2O[C@H](COCc3cn(C(c4cccc(OC(F)(F)C(F)F)c4)P(=O)(O)O)nn3)[C@@H](O)[C@H]2O)c(=O)[nH]1 (stereo in doubt; 13f-(l)) = 39%
